Give measured melting point for each item. Keep answers brief.

Example compounds with recorded melting point:
{"smiles string": "CC(C)C(=O)Nc1cnc(-c2cc(Cl)cc(Cl)c2Cl)c(NC(=O)C(C)C)n1", "melting point": "227 to 229 °C"}
{"smiles string": "N#Cc1nc(-c2cc(Cl)cc(Cl)c2Cl)c(N)nc1N", "melting point": "277 to 279 °C"}
{"smiles string": "O=C(Nc1cnc(-c2cc(Cl)cc(Cl)c2Cl)c(NC(=O)C2CC2)n1)C1CC1", "melting point": "212 to 214 °C"}

With those in mind, consider the next compound.
Qu. Any idea what melting point was measured for Nc1nc(NC(=O)C2CC2)cnc1-c1cc(Cl)cc(Cl)c1Cl ?
Ans. 240 to 244 °C
